TESTED ON: EGFR T790ML858R (Homo sapiens, UniProt P00533, L858R/T790M)
Sequence (P00533 25-1210 T790M/L858R): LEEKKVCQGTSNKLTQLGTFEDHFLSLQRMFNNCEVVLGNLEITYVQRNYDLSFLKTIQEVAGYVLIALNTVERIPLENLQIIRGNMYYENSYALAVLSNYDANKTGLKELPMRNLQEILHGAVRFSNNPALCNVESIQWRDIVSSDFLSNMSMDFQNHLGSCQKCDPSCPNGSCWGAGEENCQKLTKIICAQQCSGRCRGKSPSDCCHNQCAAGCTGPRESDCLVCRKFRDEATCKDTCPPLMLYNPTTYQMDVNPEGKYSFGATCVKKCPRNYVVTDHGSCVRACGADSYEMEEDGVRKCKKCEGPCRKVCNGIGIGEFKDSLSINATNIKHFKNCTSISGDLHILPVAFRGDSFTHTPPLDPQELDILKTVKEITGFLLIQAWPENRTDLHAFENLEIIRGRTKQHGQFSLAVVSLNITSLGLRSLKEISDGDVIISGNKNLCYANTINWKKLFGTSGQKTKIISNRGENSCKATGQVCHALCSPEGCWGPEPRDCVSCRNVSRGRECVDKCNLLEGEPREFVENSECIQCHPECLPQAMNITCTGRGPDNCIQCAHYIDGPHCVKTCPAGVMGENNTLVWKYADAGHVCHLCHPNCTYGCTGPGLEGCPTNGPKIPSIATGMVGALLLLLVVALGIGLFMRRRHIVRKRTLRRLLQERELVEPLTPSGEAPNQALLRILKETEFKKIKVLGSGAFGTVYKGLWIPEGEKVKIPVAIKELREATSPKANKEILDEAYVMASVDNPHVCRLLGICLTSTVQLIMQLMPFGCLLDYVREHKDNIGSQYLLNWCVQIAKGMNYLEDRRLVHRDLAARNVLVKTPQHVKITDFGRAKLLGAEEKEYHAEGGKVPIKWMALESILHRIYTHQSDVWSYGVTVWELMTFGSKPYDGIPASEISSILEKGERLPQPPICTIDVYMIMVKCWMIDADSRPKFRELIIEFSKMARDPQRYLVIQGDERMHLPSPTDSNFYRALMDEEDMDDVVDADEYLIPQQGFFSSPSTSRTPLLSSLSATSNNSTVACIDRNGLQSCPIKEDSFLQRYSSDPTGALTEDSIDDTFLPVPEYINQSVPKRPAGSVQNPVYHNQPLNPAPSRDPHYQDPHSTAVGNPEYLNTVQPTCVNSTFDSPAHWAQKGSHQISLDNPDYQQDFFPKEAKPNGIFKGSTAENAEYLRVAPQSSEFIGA
EXPERIMENTAL DETAILS: EGFR T790ML858R Lance assay
pIC50: −log10 of the molar value.
QUANTITY MEASURED: pIC50

- MOLECULE: "Cc1ccc(-c2c(-c3ccc(N4CCN(C)CC4)cc3)[nH]c3nccc(Cl)c23)cc1NC(=O)/C=C/CN(C)C [Example 143, 2,2,2-trifluoroacetate]"
  pIC50: "≥ 7.00"
- MOLECULE: "C=CC(=O)Nc1cc(-c2c(-c3ccc(C4CCN(C)CC4)cc3)[nH]c3nccc(OC)c23)ccc1C [Example 73]"
  pIC50: "≥ 7.00"

The molecule identified as C=CC(=O)Nc1cc(-c2c(-c3ccc(N4CCN(C)CC4)cc3)[nH]c3ncc(C(=O)OC(C)C)c(C)c23)ccc1C [Example 198] registered its pIC50 at ≥ 7.00
